# Test system: SN12C
# test name: NCI tumour cell line growth inhibition, 48 h
The source made the active and inactive calls. No stated cut-off is given here; in the data, active = GI50 up to about 1.1 µM and inactive = higher.
attribute measured: GI50

INSERT INTO results (compound, attribute_measured, measured_value) VALUES
  ('COC1=C(OC)C(=O)C(Cc2c(C)nc3sccn23)=C(C)C1=O', 'GI50', '15.8 µM (inactive)'),
  ('CCOC(=O)c1nc2cc(C(F)(F)F)ccc2nc1Nc1cc(OC)c(OC)c(OC)c1', 'GI50', '> 100 µM (inactive)'),
  ('C/C1=C\CC[C@@]2(C)O[C@@H]2C[C@@H]2[C@H](C/C(C)=C/CC1)OC(=O)[C@]21CO1', 'GI50', '74.5 µM (inactive)'),
  ('O=C(O)c1ccc(N2C=[N+]3C(=Nc4ccccc43)C2)cc1', 'GI50', '> 100 µM (inactive)'),
  ('O=C(O)CCC(NC(=O)c1ccc(Nc2nc3ccccc3nc2-c2cccs2)cc1)C(=O)O (centres undefined)', 'GI50', '> 100 µM (inactive)'),
  ('COc1ccc(/N=N/c2c(C)c(C#N)c(=S)n(C3OC(CO)C(O)C(O)C3O)c2-c2ccccc2)cc1 (centres undefined)', 'GI50', '32.3 µM (inactive)'),
  ('COc1ccc(-c2cc(=O)c3c(O)cc(O)cc3o2)cc1OC', 'GI50', '59.6 µM (inactive)'),
  ('Cc1ccc(-n2cnc3c(N/N=C4\SCC(=O)N4c4ccccc4)ncnc32)cc1', 'GI50', '2.97 µM (inactive)'),
  ('Cc1cc(S(=O)(=O)O)c(NC(=O)C(=O)C2C=CCS2(=O)=O)cc1Cl (centres undefined)', 'GI50', '> 100 µM (inactive)');

Origin of measurements: ChEMBL document CHEMBL1201862
